The following molecules are shown together with reported inhibition values.
- System: MW 32 kDa
- TEST_NAME: competitive ABPP of pPAFAH versus proteome hydrolases – biochemical, gel-based, FP-Rh fluorescence, complex proteome, SAR compounds, selectivity assay for pPAFAH inhibitor project, SAR follow-up (AID 588774);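 on inhibition: 0% = DMSO-only band intensity and 100% = blank gel background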
- MEASUREMENT_PARAMETERS: at 10 µM, stronger effect = higher value
Report the value in % with no unit label.

Exercise: What does the data say about its inhibition? Entry: Cc1cc(N2CCN(C(=O)Oc3ccc(C4CCCC4)cc3)CC2)c2ccccc2n1
Solution: 0

====

- Test system: MW 32 kDa
- TEST_NAME: competitive ABPP of pPAFAH versus proteome hydrolases – biochemical, gel-based, FP-Rh fluorescence, complex proteome, SAR compounds, selectivity assay for pPAFAH inhibitor project, SAR follow-up (AID 588774);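 on inhibition: 0% = DMSO-only band intensity and 100% = blank gel background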
- MEASUREMENT_PARAMETERS: at 10 µM, stronger effect = higher value
MEASUREMENT_TYPE: inhibition (%)
Report the value in % with no unit label.

smiles_structure=Cc1cc(N2CCN(C(=O)n3ncc(-c4ccc(OC(F)(F)F)cc4)n3)CC2)c2ccccc2n1 observed_value=87
smiles_structure=Cc1cc(N2CCN(C(=O)n3ncc(-c4ccc(Cl)c(Cl)c4)n3)CC2)c2ccccc2n1 observed_value=50
smiles_structure=Cc1cc(N2CCN(C(=O)n3oc4cc(Cl)ccc4c3=O)CC2)c2ccccc2n1 observed_value=0

Alright, here's another compound for you.
Exercise: What does the data say about its inhibition? Entry: Cc1cc(N2CCN(C(=O)Oc3ccc(-n4cccc4)cc3)CC2)c2ccccc2n1
Solution: 0

====

- TEST_NAME: competitive ABPP of pPAFAH versus proteome hydrolases – biochemical, gel-based, FP-Rh fluorescence, complex proteome, SAR compounds, selectivity assay for pPAFAH inhibitor project, SAR follow-up (AID 588774)
- MEASUREMENT_PARAMETERS: MW 32 kDa, anti-targets inhibited, at 10 µM
MEASUREMENT_TYPE: anti-target count
# print the numeric value only

smiles_structure=Cc1cc(N2CCN(C(=O)n3oc4cc(Cl)ccc4c3=O)CC2)c2ccccc2n1 measurement_type="anti-target count" observed_value=3
smiles_structure=Cc1cc(N2CCN(C(=O)Oc3ccc([N+](=O)[O-])cc3)CC2)c2ccccc2n1 measurement_type="anti-target count" observed_value=2

Exercise: What does the data say about its anti-target count? Entry: O=C(Oc1noc2cc(Cl)ccc12)N1CCOCC1
Solution: 3

Exercise: What does the data say about its anti-target count? Entry: Cc1cc(N2CCN(C(=O)Oc3ccc(C4CCCC4)cc3)CC2)c2ccccc2n1
Solution: 0

Exercise: What does the data say about its anti-target count? Entry: COc1ccc(-c2cnn(C(=O)N3CCN(c4cc(C)nc5ccccc45)CC3)n2)cc1
Solution: 8

Exercise: What does the data say about its anti-target count? Entry: Cc1cc(N2CCN(C(=O)Oc3ccc(C4CCCCC4)cc3)CC2)c2ccccc2n1
Solution: 0

Exercise: What does the data say about its anti-target count? Entry: Cc1cc(N2CCN(C(=O)Oc3noc4cc(Cl)ccc34)CC2)c2ccccc2n1
Solution: 4

Exercise: What does the data say about its anti-target count? Entry: Cc1cc(N2CCN(C(=O)Oc3ccc(-n4cccc4)cc3)CC2)c2ccccc2n1
Solution: 0

Exercise: What does the data say about its anti-target count? Entry: O=C(N1CCOCC1)n1oc2cc(Cl)ccc2c1=O
Solution: 6
